Tested on: NCI-H23 lung
Assay: NCI-60 one-dose screen, 48 h (100 = growth as untreated, 0 = no growth, -100 = all killed)
Conditions: 10 µM unless noted
Compounds without any hit were thinned out: in the full panel of roughly 83,000, 20% have a hit.
Listed here are compounds together with their documented growth.
measuredMetric: growth (%)

{"compoundSmiles": "C#C[C@]1(O)CC[C@H]2[C@@H]3CC=C4c5sc(Nc6cc(C)cc(C)c6)nc5CC[C@]4(C)[C@H]3CC[C@@]21C", "resultUnit": "%", "quantitativeReadout": 14.8}
{"compoundSmiles": "Cc1ccc(NC2=C(Cl)C(=O)c3nc(C)ccc3C2=O)c(C)c1", "resultUnit": "%", "quantitativeReadout": -49.9}
{"compoundSmiles": "CCc1nnc(NC(=O)c2cc(-c3ccc(Cl)cc3Cl)oc2C)s1", "resultUnit": "%", "quantitativeReadout": 85.7}
{"compoundSmiles": "Cc1ccc2c(n1)C(=O)C(Cl)=C(Nc1ccc(C)c(C)c1)C2=O", "resultUnit": "%", "quantitativeReadout": 11.7}
{"compoundSmiles": "C#CCOc1ccc(-c2csc(NC(=O)C=C)n2)cc1NS(=O)(=O)c1cccc2c(N(C)C)cccc12", "resultUnit": "%", "quantitativeReadout": 56.4}
{"compoundSmiles": "CCN(CC)S(=O)(=O)c1ccc(-c2nc(C(Cl)Cl)nc3cc(-c4ccc(F)cc4)nn23)cc1", "resultUnit": "%", "quantitativeReadout": 21.7}
{"compoundSmiles": "C#C[C@]1(O)CC[C@H]2[C@@H]3CC=C4c5sc(Nc6cccc(F)c6)nc5CC[C@]4(C)[C@H]3CC[C@@]21C", "resultUnit": "%", "quantitativeReadout": 27.8}

* * *

Test system: RPMI-8226 leukemia
Assay: NCI-60 one-dose screen, 48 h
Settings: 10 µM unless noted
About 83,000 compounds went through this panel and 20% of them were active in at least one assay; those are over-represented in the sample as a whole. Activity calls are given as the source filed them. How the source made its calls: active means growth percent below 10; inactive means the rest.
Outcomes: 1 (yes) = active, 0 (no) = inactive

{"compound": "Cc1ccc2c(n1)C(=O)C(Cl)=C(Nc1ccc(C)c(C)c1)C2=O", "className": "0 (no)"}
{"compound": "O=C(CSc1nc2ccccc2c(=O)n1-c1ccccc1)Nc1ccc(S(=O)(=O)Nc2nccs2)cc1", "className": "0 (no)"}
{"compound": "COc1ccc(CC(C)=C(c2ccc(OCCN3CCCC3)cc2)c2ccc(OCCN3CCCC3)cc2)cc1", "className": "1 (yes)"}
{"compound": "CCn1c2ccc(/C=N/N(C)S(=O)(=O)CCN(C)C)cc2c2cc(/C=N/N(C)S(=O)(=O)CCN(C)C)ccc21", "className": "0 (no)"}
{"compound": "CN1CCN(Cc2ccc(/C=N/Nc3ccnc4cc(Cl)ccc34)cc2)CC1", "className": "0 (no)"}
{"compound": "Cn1c(SCC(=O)c2ccc(F)cc2)nc2ccccc2c1=O", "className": "0 (no)"}
{"compound": "Cc1csc(/N=C(N)/N=C(\\N)c2cccc(C#N)c2)n1", "className": "0 (no)"}
{"compound": "O=C1c2ccccc2C23C(=C(c4cncnc4)c4ccccc42)CCCN13 (stereo not drawn)", "className": "0 (no)"}
{"compound": "Cc1c(C(=O)/C=C/c2ccc(Cl)cc2)nnn1-c1ccc2oc(=O)ccc2c1", "className": "0 (no)"}
{"compound": "Cn1cc(-c2nnc(N)nc2-c2c[nH]c3ccc(Br)cc23)c2cc(Br)ccc21", "className": "0 (no)"}
{"compound": "CC(=O)/C(N=Nc1ccc2oc(=O)ccc2c1)=C(\\C)O", "className": "0 (no)"}
{"compound": "O=C1[C@@H]2Cc3c([nH]c4ccccc34)[C@H](c3ccc(Br)cc3)N2C(=O)CN1C1CCN(Cc2c(Cl)cccc2Cl)CC1", "className": "0 (no)"}
{"compound": "CCCCCCCCCCCC(=O)NC(C)(C)C(=O)N1CCCC1C(=O)NC(C)(C)C(=O)NC(C)(C)C(=O)N1CCCC1C(=O)NC(C)(C)C(=O)NC(C)(C)C(=O)N1CCCC1C(=O)NC(C)C(=O)NCCC(=O)NC(C)C(=O)NC(C)(C)C(=O)NC(C)(C)C(=O)NC(C)(C)C(=O)NCCC(=O)NC(C)(C)C(=O)NC(C)(C)C(=O)NC(C)(C)C(=O)NC(C)C(=O)NCCC(=O)O (stereo not drawn)", "className": "1 (yes)"}
{"compound": "Nc1nc(=O)n([C@H]2C[C@H](O)[C@@H](CO)O2)cc1C=O", "className": "0 (no)"}
{"compound": "Nc1cc(C(=O)N/N=C\\c2ccc(OC(F)F)c(OC3CCCC3)c2)nn1CC(O)c1ccccc1 (stereo not drawn)", "className": "0 (no)"}
{"compound": "C#CCOc1cccc(/C(N)=N/C(N)=N/c2nc3ccccc3s2)c1", "className": "0 (no)"}
{"compound": "Cc1ccc(S(=O)(=O)NCCCNc2nccc(-c3[nH]c(-c4ccccc4)nc3-c3ccc(F)c(O)c3)n2)cc1", "className": "0 (no)"}
{"compound": "Cc1ccc2c(n1)C(=O)C(Cl)=C(Nc1ccc(C(=O)OC(C)(C)C)cc1)C2=O", "className": "1 (yes)"}

* * *

Tested on: HCT-116 colon
Experiment: NCI-60 one-dose screen, 48 h
Details: 10 µM unless noted
About 83,000 compounds went through this panel and 20% of them were active in at least one assay; those are over-represented in the sample as a whole. Active and inactive are the calls of the source. How the source made its calls: active means growth percent below 10; inactive means the rest.
Outcomes: active, inactive

{"compound": "CCCCc1nc2c(N)nc3ccccc3c2n1Cc1cccc(CN)c1", "className": "inactive"}
{"compound": "CN(C)CC(=O)Nc1nc(-c2cccc(NS(=O)(=O)c3cccc4c(N(C)C)cccc34)c2)cs1", "className": "inactive"}
{"compound": "Brc1cccc(-c2cc(-c3cnc4c(c3)OCCO4)n[nH]2)c1", "className": "inactive"}
{"compound": "Cc1ccc(CSC2=C(Cl)CN(c3ccc(Cl)cc3)C2=O)cc1", "className": "inactive"}
{"compound": "O=C(CCCCCCNC(=O)C(O)(O)C(F)(F)F)Nc1nc2ccccc2s1", "className": "active"}
{"compound": "CCC1=Cc2c(OC)cccc2OC12C=Cc1c(OC)cccc1O2 (stereo not given)", "className": "active"}
{"compound": "CN1CCN(Cc2ccc(NC(=O)c3cncc(C#Cc4cnc5ccc(N)nn45)c3)cc2C(F)(F)F)CC1", "className": "active"}
{"compound": "O=C1Nc2ccccc2/C1=N\\c1nnc(-c2ccccc2)o1", "className": "inactive"}
{"compound": "N#Cc1c(-c2ccc(F)cc2)cc(-c2c[nH]c3ccccc23)nc1-c1c[nH]c2ccccc12", "className": "inactive"}
{"compound": "N#C/C(=C\\c1ccc(-c2ccc(Cl)c(Cl)c2)o1)C(=O)Nc1ncc(Cc2ccc(Cl)cc2)s1", "className": "active"}

* * *

Listed here are compounds together with their documented growth.
Test system: SK-OV-3 ovarian
Test: NCI-60 one-dose screen, 48 h (100 = growth as untreated, 0 = no growth, -100 = all killed)
Conditions: 10 µM unless noted
Compounds without any hit were thinned out: in the full panel of roughly 83,000, 20% have a hit.

{"compound": "O=C1Nc2ccccc2/C1=C/c1ccc(OCC(=O)c2ccccc2)cc1", "growth [%]": 102}
{"compound": "CC1=C(SCC(=O)OCCCCCC(C)C)C(=O)c2ccccc2C1=O", "growth [%]": 104}
{"compound": "N#Cc1c(-c2cccs2)cc(-c2cnccn2)nc1SCC(=O)N/N=C/c1ccccc1", "growth [%]": 106}
{"compound": "CCN(CC)CCOc1ccc(C(=C(c2ccccc2)C2CCCC2)c2ccc(OCCN(CC)CC)cc2)cc1", "growth [%]": 21.2}
{"compound": "COc1cc(/C=C2/C(=O)Nc3ccc(Cl)cc32)ccc1OCc1ccc(Cl)cc1", "growth [%]": 110}
{"compound": "O=C(O)c1ccc(-n2c(=O)n(-c3cccc(C(F)(F)F)c3)c(=O)c3cc(-c4ccc(F)cc4F)ccc32)cc1", "growth [%]": 2.5}
{"compound": "CCOC(=O)c1cnc2c(-c3ccc(Cl)c(Cl)c3)cnn2c1", "growth [%]": 90.8}
{"compound": "CCCc1cc2cc(-n3nc(CC)c4c3CC(C)(C)CC4=O)cc(NC3CCC(O)CC3)c2c(=O)[nH]1 (stereo not drawn)", "growth [%]": 27.2}
{"compound": "C[C@H]1OCC2(CCN(c3cnc(C(=O)Nc4cc(F)cc5cccnc45)cn3)CC2)[C@H]1N", "growth [%]": 98.8}
{"compound": "Cc1ccc(NC(=O)Nc2nc3ccc([N+](=O)[O-])cc3s2)cc1", "growth [%]": -12.4}
{"compound": "Cn1ncc2c(C(=O)c3ccc(F)cc3)nc(C(C)(C)C)nc21", "growth [%]": 112}
{"compound": "O=C(CSc1nc2ccccc2c(=O)n1-c1ccc(Cl)c(Cl)c1)Nc1ccc(S(=O)(=O)Nc2ccc(Cl)nn2)cc1", "growth [%]": 88.8}
{"compound": "COc1ccc2c(c1)C=CC1(O2)Oc2ccc(OC)cc2C=C1C (stereo not drawn)", "growth [%]": 57.2}
{"compound": "O=C(CSc1nnc(-c2cccs2)n1-c1ccccc1)Nc1ccccc1", "growth [%]": 80.1}
{"compound": "CNC(=O)c1cc(N2CCc3cc(NC(=O)Nc4ccc(N5CCN(C)CC5)c(C(F)(F)F)c4)ccc32)ccn1", "growth [%]": 107}
{"compound": "CCC(=C(c1ccc(OCCN(C)C)cc1)c1ccc(OCCN(C)C)cc1)c1ccc(Cl)cc1", "growth [%]": 95.5}
{"compound": "C=CCSC1=NC2C(N(CC)C(=O)N2CC)N1/N=C/C=C/c1ccccc1OC (stereo not drawn)", "growth [%]": 99.8}
{"compound": "O=C(N/N=C/c1cc2ccccc2nc1Cl)c1cc(-c2nc3ccccc3[nH]2)nc2ccccc12", "growth [%]": 106}
{"compound": "CCN(CC)c1ccc(/C=N/NC(=O)c2ccc(S(N)(=O)=O)cc2)c(O)c1", "growth [%]": 32.2}
{"compound": "CCOC(=O)c1c(NC(=O)c2cccc(C(F)(F)F)c2)sc2c3c(ccc12)OCN(C)C3", "growth [%]": 75.7}
{"compound": "CSc1ccc(C(=NNS(=O)(=O)c2ccc(C)cc2)c2ccc(Cl)cc2)cc1", "growth [%]": 111}
{"compound": "NS(=O)(=O)c1ccc(Nc2nc(N/N=C/C=C/c3ccccc3)nc(Nc3ccccc3)n2)cc1", "growth [%]": 78.3}
{"compound": "Cc1[nH]c(C(=O)Nc2ccccc2OCc2cccc(C(=O)NC3CCCNC3)c2)c(Cl)c1Cl (stereo not drawn)", "growth [%]": 108}
{"compound": "COc1cc(C(=O)c2cc(C(C)=O)c3cccc(C)n23)cc(OC)c1OC", "growth [%]": 46.6}
{"compound": "CSc1ccc(/C(=N/N=C(N)N)c2ccc(Cl)cc2)cc1", "growth [%]": 24.7}
{"compound": "COC(=O)CCSC1=C(C)C(=O)c2ccccc2C1=O", "growth [%]": 97.7}
{"compound": "Clc1ccc2[nH]cc(-c3nn4cc(-c5ccncc5)nc4s3)c2c1", "growth [%]": 15.4}
{"compound": "O=C1C(N2CCN(c3ccccc3)CC2)=C(Cl)C(=O)c2ncccc21", "growth [%]": 91.5}
